Assay: Selectivity index, ratio of IC50 for human HaCaT cells to MIC for Bordetella bronchiseptica ATCC 4617
Assay type: toxicity
Conditions: read-out: Selectivity Index
Define the label as 1 (yes) when selectivity ratio is strictly less than 0.4 and as 0 (no) in all remaining cases.

compound.smiles	group.label
O=[N+]([O-])c1ccc(-n2nnnc2Nn2cnnc2)cc1	0 (no)
Fc1ccc(-n2nnnc2Nn2cnnc2)cc1	1 (yes)
Fc1ccc(-n2nnnc2Nc2nccs2)cc1Cl	1 (yes)
Fc1ccc(-n2nnnc2Nn2cnnc2)cc1Cl	1 (yes)
Cc1ccc(-n2nnnc2NCc2ccco2)cc1Cl	0 (no)
Brc1ccc(-n2nnnc2Nn2cnnc2)cc1	1 (yes)
Fc1ccc(-n2nnnc2NCc2ccco2)cc1Cl	0 (no)

###

Test system: Micrococcus luteus
Test: Antibacterial activity against Micrococcus luteus ATCC 10240 after 18 hrs by CLSI disc diffusion method
Type: functional
Conditions: ATCC 10240, 18 h
Define the label as T when MIC is strictly less than 30 µM and as F in all remaining cases.

compound.smiles	target.system	group.label
O=[N+]([O-])c1ccc(-n2nnnc2Nn2cnnc2)cc1	Micrococcus luteus	F
Fc1ccc(-n2nnnc2NCc2ccco2)cc1Cl	Micrococcus luteus	T
CCn1nnnc1NCCc1c[nH]c2ccccc12	Micrococcus luteus	F
Fc1ccc(-n2nnnc2NCCc2c[nH]c3ccccc23)cc1	Micrococcus luteus	T
Cc1ccc(-n2nnnc2NCc2ccco2)cc1Cl	Micrococcus luteus	T
Fc1ccc(-n2nnnc2Nc2nccs2)cc1Cl	Micrococcus luteus	T
O=C(O)n1nnnc1Nn1cnnc1	Micrococcus luteus	T
Fc1ccc(-n2nnnc2Nn2cnnc2)cc1Cl	Micrococcus luteus	F
O=[N+]([O-])c1cc(-n2nnnc2Nc2nc[nH]n2)ccc1Cl	Micrococcus luteus	F
FC(F)(F)c1ccc(-n2nnnc2Nc2nccs2)cc1	Micrococcus luteus	F
Clc1ccc(-n2nnnc2Nc2nccs2)cc1Cl	Micrococcus luteus	F
Fc1ccc(-n2nnnc2Nn2cnnc2)cc1	Micrococcus luteus	T
Brc1ccc(-n2nnnc2Nn2cnnc2)cc1	Micrococcus luteus	T
O=C(O)n1nnnc1NCCc1c[nH]c2ccccc12	Micrococcus luteus	T

###

Experiment: Selectivity index, ratio of IC50 for human HaCaT cells to MIC for Micrococcus luteus ATCC 10240
Type: toxicity
Details: read-out: Selectivity Index
# selectivity ratio listing for each entry below
measured.quantity: selectivity ratio

compound.smiles	numeric.value
Fc1ccc(-n2nnnc2Nc2nccs2)cc1Cl	2.22
Cc1ccc(-n2nnnc2NCc2ccco2)cc1Cl	11.4
Fc1ccc(-n2nnnc2Nn2cnnc2)cc1Cl	1.08
O=[N+]([O-])c1ccc(-n2nnnc2Nn2cnnc2)cc1	1.1
Fc1ccc(-n2nnnc2Nn2cnnc2)cc1	1.47
FC(F)(F)c1ccc(-n2nnnc2Nc2nccs2)cc1	1.56
Brc1ccc(-n2nnnc2Nn2cnnc2)cc1	2.5
Fc1ccc(-n2nnnc2NCc2ccco2)cc1Cl	84

###

Experiment: Selectivity index, ratio of IC50 for human HaCaT cells to MIC for Staphylococcus aureus NCTC 4163
Format: toxicity
Conditions: read-out: Selectivity Index
Define the label as Satisfied when selectivity ratio is strictly less than 4 and as Not satisfied in all remaining cases.

compound.smiles	group.label
O=[N+]([O-])c1ccc(-n2nnnc2Nn2cnnc2)cc1	Not satisfied
Fc1ccc(-n2nnnc2Nn2cnnc2)cc1Cl	Not satisfied
Cc1ccc(-n2nnnc2NCc2ccco2)cc1Cl	Not satisfied
Brc1ccc(-n2nnnc2Nn2cnnc2)cc1	Satisfied
Fc1ccc(-n2nnnc2Nn2cnnc2)cc1	Satisfied
Fc1ccc(-n2nnnc2NCc2ccco2)cc1Cl	Not satisfied
FC(F)(F)c1ccc(-n2nnnc2Nc2nccs2)cc1	Satisfied
Fc1ccc(-n2nnnc2Nc2nccs2)cc1Cl	Satisfied
